system: SK-MEL-28; experiment: NCI tumour cell line growth inhibition, 48 h
Calls of active or inactive are those of the source. Rule as the data show it: active = GI50 up to about 1.1 µM and inactive = higher.
Result type: GI50

Below are worked cases with known answers.
molecule=CSc1cc(Cl)c(C(=O)Nc2ccccc2)cc1S(=O)(=O)n1ccnc1O target_of_assay=SK-MEL-28 recorded_value="> 100 µM (inactive)"
molecule=C[n+]1ccccc1/C=C/c1ccc2c(c1)OCO2 target_of_assay=SK-MEL-28 recorded_value="> 10 µM (inactive)"
molecule=COc1ccc(/C=N/NC(=O)c2ccccc2Nc2ccccc2C(=O)N/N=C/c2ccc(OC)c(OC)c2)cc1OC target_of_assay=SK-MEL-28 recorded_value="> 100 µM (inactive)"

Request: GI50, test system SK-MEL-28, entry N#CC(/N=N/c1ccccc1C(=O)O)C(N)=O (stereo unspecified)
> 100 µM (inactive)

Moving on to the next molecule: CCCCCCC(C)c1ccc2c(c1)C(=O)c1nc3ccncc3c(=O)n1-2 (stereo unspecified)
14.5 µM (inactive)

Moving on to the next molecule: CCOc1ccccc1NC(=O)CCC(=O)OC
> 100 µM (inactive)

Moving on to the next molecule: Cc1ccccc1C(=N)c1ccccc1Cc1cccc2ccccc12
20.7 µM (inactive)

Moving on to the next molecule: O=c1[nH]cc(F)c(=O)[nH]1 [FLUOROURACIL]
50.2 µM (inactive)

Moving on to the next molecule: C#Cc1cc(CN(CC(=O)OC(C)(C)C)CC(=O)OC(C)(C)C)nc(CN(CC(=O)OC(C)(C)C)CC(=O)OC(C)(C)C)c1
7.5 µM (inactive)

Moving on to the next molecule: Oc1ccc(-c2c3ccccc3c(-c3ccc(O)cc3)c3ccccc23)cc1
> 100 µM (inactive)

Moving on to the next molecule: COc1ccc(OC)c2c1C1CCC(=O)N1CN2C(C)=O (stereo unspecified)
> 100 µM (inactive)
